Experiment: Study A dose-escalation protocol: 17-AAG pharmacokinetics in plasma (HPLC)
Format: in vivo
Details: female, dog, 200 mg/m2; Study A, dogs, plasma, single IV dose 200 mg/m^2, mean ± SD; read-out: t½ (converted)
Method: In Studies A and B, an intravenous catheter was placed in the cephalic vein of each animal’s right and left anterior limbs. […] Under both protocols, blood samples were centrifuged at 1500× g at 4 °C for 10 min. For the mobile phase, acetonitrile (ACN, J.T.Baker®, Philadelphia, PA, USA) and water with 1% acetic acid (J.T.Baker®)were used. […] Cmax, half-life (t ½), distribution volume, and clearance were also determined. Data were analyzed in Excel and WinNonlin using a mono-compartmental model.
reported endpoint: half-life (min)

{"entry smiles": "C=CCNC1=C2C[C@@H](C)C[C@H](OC)[C@H](O)[C@@H](C)/C=C(\\C)[C@H](OC(N)=O)[C@@H](OC)/C=C\\C=C(/C)C(=O)NC(=CC1=O)C2=O", "reported endpoint": "half-life", "unit of measure": "min", "assay value": 40.2}
